The measurements presented in this section are drawn from the DeepSol protein solubility set.

method-description: soluble on expression in E. coli; label from the status in PepcDB or PDB records
readout-label: soluble on expression in E. coli

# query-sequence, measured
rows = [
    ("MQRQEQLKKWLAEQYPGDEIQLEFAAADADFRRYFRAIWPDGASRIVMDAPPEHIGTDAYVKVRDIFSMVKVPEIYLRDRDQGFIVMEDLGKVTYLAALQHDERPFVHRHLLLEALDTLVDIQKASQPEVLPEYDETLLTRELNLFPEWFCAKELGKPLNFKQRQLWDAGVQALLPALLTQPKVFVHRDFIVRNLMLTPGTPGVLDFQDAVYGPISYDAVSLLRDAFIEWDEEFVLDLAIRYWEKARAAGLPVPEAFDDFYRAFEWMGVQRHLKVAGIFARLYHRDGKDKYLAEIPRFIKYLKRTTRRYAELAPFYQLLVDLVGRDATDEELQSSYPVLGVKGHLEHHHHHH", "not soluble"),
    ("MGSDKIHHHHHHMRKKNYYLVSDGKLRRHENTIYFENEDGKRPIPINSIYAIYALGSLSITSKAISLLAKEGVCIHFFNRYGYYIGSFYPRESLVSGEVVLRQAEHHLDSEKRLHLARAFVEGAILNMARVLKKAEQDDSDVIASLQHLSSAKSIVELMGAEAAARNAYYTKFDEILKNFEFGKRSRMPPENEVNAMISFGNSLLYSAVLSEIYHTQLNPAISYLHEPSERRFSLALDIAELFKPVIVDRLIFYLVNNGIVTESDFDSRLGGILLSEEGKKKFVRHFNERLEKTVKHRKLNRKVSYQRLIRLECYKLVKHFTAVEKYSPFVMWW", "not soluble"),
    ("MAHHHHHHMSDSALLEGVSFPVEPFAEKHRKILALLAHAATQAVNTRSNEVVFDVLCSSEPSLARLYPEVAVLQGVHQIRRVLRNLQDSQPHVRPMYLKMIVDSLKDMNEMLPDPLLLVIARTVEILEGEGRGFRELEPHLLDLVEYIQVVILRETKLLQCRGTLITLRLRGVPPFVASETESTT", "not soluble"),
    ("MKFKNILFDFDDTLVDFYDAEKKAFYNLAQKYNHQPTQQDFEHFKKVNQAHWEAFQQNKLTKDEVLSQRFINYFNDYQIHVNGKEADKCFRAELAMAPVKLFDHTLEVIQQLKLNHSLYIVTNGVTETQLRRIAQTQFNEIFQDVFISEKAGFQKPMTEFFDFVFEHIGENNRNQTLIVGDSLTSDILGGKNANISTCWFNIRQKENHTSIQPDYIINDLSEMIRIVE", "not soluble"),
    ("MNLHEYQAKQLFARYGLPAPVGYACTTPREAEEAASKIGAGPWVVKCQVHAGGRGKAGGVKVVNSKEDIRAFAENWLGKRLVTYQTDANGQPVNQILVEAATDIAKELYLGAVVDRSSRRVVFMASTEGGVEIEKVAEETPHLIHKVALDPLTGPMPYQGRELAFKLGLEGKLVQQFTKIFMGLATIFLERDLALIAINPLVITKQGDLICLDGKLGADGNALFRQPDLREMRDQSQEDPREAQAAQWELNYVALDGNIGCMVNGAGLAMGTMDIVKLHGGEPANFLDVGGGATKERVTEAFKIILSDDKVKAVLVNIFGGIVRCDLIADGIIGAVAEVGVNVPVVVRLEGNNAELGAKKLADSGLNIIAAKGLTDAAQQVVAAVEGK", "soluble"),
    ("AHHHHHHASAKWVCKICGYIYDEDAGDPDNGISPGTKFEELPDDWVCPICGAPKSEFEKLEDGSFLPYLSSPYPLYLINLMLMECPPDIYSFSTQNSNNQLKGLFMFKKKEYDRWMVEAKRTLASAYSDLREGYYEWASFKAQQAAELAVKAILRGLSFAPIGHSITKLLRELAENNIKGPKKILYFAMKLDRNYIALRYPDAYPEGPH", "soluble"),
    ("MIYPYNSTISLGTVSLNVTDLAKMTTFYTSIIGLQVLSQDTTSRQLTTDGKTVILELRQTPLPGDKAYGLYHTAFLVPDRHSLGLVLNHFLTRSISLEGAADHGHSEAIYLSDPEGNGIEIYHDKAVEHWDIRDNGQIIGVTEPTDTKSILEQLTDIPKHFLLAQDTRIRHVHLSVKNALASSLLYQKVFDLGDKMTIPSASWIASGNYYHHLAFNHWSAPYLKKHQEGAPGLAFLTIHIETPLLFSATLKKARLHGLAILQEDSSSFTTEDEEGIRVNVILGQD", "not soluble"),
    ("MVVLNTPGKYQYDLRNHLLVNLFPIALDAEITTSNVNKHQLHRSNIPAALSGNSGITDYVPFSAERNAAMVIWRTAIDSRPAVCNDEEGTPGTL", "not soluble"),
    ("MFEGFKEVTDKDFYKAVMMNPKPSVVVFTDPNNPANEQIKPILEKYQKLYGDKIDFFYMDVTKNTSFEDFGIFNFPAILYFRDTMELDRHDFIPTEEMVEQAIKRLLRMV", "not soluble"),
    ("AIAGCLFSVPEGGYLEVNEERSAGAYDSLSTASGIDDLHDERQPKAAYSMEDSSADLVAEDGAAVHQEVLNAHDDAWCRFDATSDATNEGAAAGGIGAPPSPLDLSLDSVVQQAYQDRVLVVFSGKAFGIALQLQMHWAALGASSAAPECVMDACVPESLLRAVHACLRAHMHACERIANRWNPDSELSAACSSAHPKKAVEVGTILYALLAEAHRLHRVTGGRFDPTCGALWRGFRATLRSSALQRPPQGRAFST", "soluble"),
    ("MKLPLFPLPICLLPEGYTQLRIFEPRYKRLVAESLKSGDGFGLCMTSEEVNTLYPIGTLVHIIDFETLSDGMLGVSIEGKQRFILGDISVESDGLKRAQINLIDNWPAAPIHENEHYLSDMLQNILKEYPKHLQQYQAAQFDDIAWVCQRWLEILPIRSAEKYTCINALDHQLTLDLLRTVIKLEHHHHHH", "soluble"),
    ("MSLAKLNVEVFADGADIEQMKAAYKNKEVDGFTTNPSLMAKAGVTDYKSFAEEAVKEIPDASISFEVFADDLETMEKEAEILKQYGDNVFVKIPVVNTKGESTIPLIKKLSADNVRLNVTAVYTIEQVKEITEAVTEGVPTYISVFAGRIADTGVDPLPLMKESVDVAHSKEGVKLLWASCRELFNVIQADEIGADIITCPADVVKKVNTNLGRDINELSVDTVKGFAKDIQSSGLSEGHHHHHH", "soluble"),
]
